# MEASUREMENT PROTOCOL: yeast display, Sf9 membrane polyspecificity reagent, FACS + sequencing; frameworks hold sequencing errors
EXPERIMENTAL ENDPOINT: polyreactivity (PSR sort gate)

QVQLVESGGGLVQAGGSLRLSCAASGSPFVDNDMGWSRQAPGKDRELVAAAITARGGSTYYADSVKGRFTISRDNAKNTVYLQMNSLKPEDTAVYYCAAGRPGELDYWGQGTQVTVSS : low polyreactivity
QVQLVESGGGLVQAGGSLRLSCAASGFIFRYYAMGWYRQAPGKEREMVAAISRSGGSTYYADSVKGRFTISRDNANNTVYLQMKSLKPEDTAVYYCAALQSRSWYQFNYWGQGTQVTVSS : high polyreactivity
QVQLVESGGGLVQAGGSLRLSCAASGLIFWHYAMGWYRQAPGKERELVAAISRRGGSTYYADSVKGRFTISRDNAKNTVYLQMNSLKPEDTAVYYCAADVWGSSAQRGWRKDYYWGQGTQVTVSS : high polyreactivity
QVQLVESGGGLVQSGGSLRLSCAASGSTLTFNAMGWYRQAPGKERELVAAISWSDTDTYYADSVKGRFTISRDNAKNTVYLQMNSLKPEDTAVYYCAATLSAYEMDYWGQGTQVTVSS : low polyreactivity

Quick note, polyreactivity (PSR sort gate) for `QVQLVESGGGLVQAGGSLRLSCAASGGTFALYAMGWYRQAPGKERELVASISFNGGSTYYADSVKGRFTISRDTAKNTVYLQMNSLKPEDTAVYYCNTGYQWGVYESQTAEEDYWGQGTQVTVSS` landed at low polyreactivity

Quick note, polyreactivity (PSR sort gate) for `QVQLVESGGGLVQAGGSLRLSCAASGRNFLYNAMGWYRQAPGKERELVAAISGGSTNYADSVKGRFTISRDNAKNTVYLQMHSLKPEDTAVYYCAARYLRRYNWGQGTQVSVSS` landed at high polyreactivity

Quick note, polyreactivity (PSR sort gate) for `QVQLVESGGGLVHAGGSLRLSCAASGSIFTGYAMGWYRQAPGKERELVAAIDYRSGSTYYADSVKGRFTISRDNAKNTVYLQMNSLKPEDTAVYYCAAPAGWGFDEAFGYGYWGQGTQVTVSS` landed at low polyreactivity

###

# MEASUREMENT PROTOCOL: yeast display, Sf9 membrane polyspecificity reagent, FACS + sequencing; frameworks hold sequencing errors
EXPERIMENTAL ENDPOINT: polyreactivity (PSR sort gate)

See these solved cases before continuing.
QDQLVEAGGGLVQAGGSLRLSCAASGFIFSRNAMGWYRQAPGKEGELVAAISSTGGITYYADSVKGRFSISRDNAKNTVYLQLTSLKPEDTAVYFCAAGFYGYARHTWYNYWGQGTQVTVSS : high polyreactivity
QVQLVESGGGLVQAGGSLRLSCAASGRTFFFYAMGWYRQAPGKERELVADITWSDGTTYYAESVKGRFTISRDNAKNTVYLQMNSLKPEDTAVYYCAKVRTGQSRSVGYDYWGQGTQVTVSS : low polyreactivity
QVQLVESGGGLVQAGGSLRLSCAASGRTFKRYAMGWYRQAPGKERELVAAITRSGGSTYYADSVKGRFTISRDNAKNTVYLQMNSLKPEDTAVYYCATRSYNNELEYWGQGTQVTVSS : high polyreactivity
QVQLEESGGGLVQAGGSLRLSCADSGRTFRFYTIGWYRQAPGKERELVASISWGGTSTYYADSVKGRFTISRDNANNTVYLQMISLKPEDTAVYSCAAPRWVEGFRFDYWGQGTQVTVSS : high polyreactivity
QVQLVESGGGLVQAGGSLRLSCAASGSTFTYNTLVWYRQAPGKERELVAAISWGGGGTYYADSVKGRFTISRDNAKNTVYLQMNSLKPEDTAVYYCNADPWWDYGTFDYWGQGTQVTVSS : low polyreactivity

Quick note, polyreactivity (PSR sort gate) for `QVQLVESGGGLVQAGGSLRLSCAASGSTFIFYVMVWYRQAPGKERELVASITGNGTSTYYADSVKGRFTISRDNAKNTVYLQMNSLKPEDSAVYYCNAVFSPSRYDYWGQGTQVTVSS` landed at low polyreactivity

Quick note, polyreactivity (PSR sort gate) for `QVQLVESGGGLVQAGGSLRLSCAASGSTFTVNDMGWYRQAPGKERELVAAITQRDGRTFYADSVKGRFTISRDNAKNTVYLQMNSLKPEDTAVYYCAATFIQVVVNVQLYDYDYWGQGTQVTVSS` landed at low polyreactivity

Quick note, polyreactivity (PSR sort gate) for `QVQLVESGGGLVQAGGSLRLSCAASAFTFGYYAMGWYIQAPGKERELVAAISSGGNTNYADSVKGRFTISRDNAKNTVYLQMNSLKPEDTAVYYCNRRSWRYYKTYSAFNYWGQGSQVTVSS` landed at high polyreactivity

Quick note, polyreactivity (PSR sort gate) for `QVQLVQSGGGLVQAGGSLRLSCAASGSTFYLNAMGLYIQAPGKERELLAAITDAGSTNYADSVKGRFTISRDNAKNTVYLQMNSLKPEDTAVYYCNAEPRYYSGGHGYDYWGQGTQVTVSS` landed at low polyreactivity

Quick note, polyreactivity (PSR sort gate) for `QVQLVESGGGLVQAGGSLRLSCAASGSIFSVNTMGWYRQAPGKERELVAAISESGDGTYYADSVKGRFTISRDNAKNTVYLQMNSLKPEDTAVYYCNADRQKGGGYYPHEFDYWGQGTQVTVSS` landed at low polyreactivity

Attribution: the nanobody polyreactivity screen of Harvey et al. (2022)
